- Test system: IgG Fab2 fragment (human) (Homo sapiens)
- protocol details: filter
- test parameters: pH 6, 41 mM Na+
measured metric: Ka

[[record]]
residues = "CCTCTTCTTTTTCTTCTCCTTTTTGGAGAAG [RAD2 (triplex 31mer)]"
test_system = "IgG Fab2 fragment (human) (Homo sapiens)"
observed = "6.45 log10 M-1"

[[record]]
residues = "CTCTCTCTTTTTCTCTCTCTTTTTGAGAGAG [RAD9]"
test_system = "IgG Fab2 fragment (human) (Homo sapiens)"
observed = "6.44 log10 M-1"

[[record]]
residues = "CCCTCCCTGGGCTTTTTTTGATTTTTCTTAA [RAD4]"
test_system = "IgG Fab2 fragment (human) (Homo sapiens)"
observed = "6.89 log10 M-1"

[[record]]
residues = "TGGTTGGTTTTTGGAAGGATTTTTTCCTTCC [RAD3]"
test_system = "IgG Fab2 fragment (human) (Homo sapiens)"
observed = "6.97 log10 M-1"

[[record]]
residues = "TGGGCCGGTAACGGGTTACCGTAAGGTCCC [RAD10]"
test_system = "IgG Fab2 fragment (human) (Homo sapiens)"
observed = "6.43 log10 M-1"

[[record]]
residues = "TTTTCGCGCGTACGCGCGCGAA [RAD15]"
test_system = "IgG Fab2 fragment (human) (Homo sapiens)"
observed = "5.33 log10 M-1"

[[record]]
residues = "GAGAGAGTTTTTGAGAGAGTTTTTCTCTCTC [RAD7]"
test_system = "IgG Fab2 fragment (human) (Homo sapiens)"
observed = "6.68 log10 M-1"

[[record]]
residues = "TTTTCGCGCGTTAACGCGCGAA [RAD16]"
test_system = "IgG Fab2 fragment (human) (Homo sapiens)"
observed = "6.23 log10 M-1"

[[record]]
residues = "CCTTCCTTTGGAAGGTTG [RAD23]"
test_system = "IgG Fab2 fragment (human) (Homo sapiens)"
observed = "5.64 log10 M-1"

[[record]]
residues = "CCTCTTCTTTTTCTTCTC [RAD20]"
test_system = "IgG Fab2 fragment (human) (Homo sapiens)"
observed = "6.9 log10 M-1"

